The origin of these recorded values is paper PMC4948680.

assay: in vivo; set-up: species or system SCID mice; conditions: SCID, mouse, iv, 10 pmol peptide, total radioactivity, %ID/g tissue, Tumour(–) (A431-CCK2R(–))
Result Type: tissue uptake at 24 h (%ID/g)
Answers are plain numbers, in %ID/g.

Entry under test: CSCC[C@H](NC(=O)[C@H](Cc1c[nH]c2ccccc12)NC(=O)CNC(=O)[C@H](Cc1ccc(O)cc1)NC(=O)[C@H](C)NC(=O)[C@@H](CCC(=O)O)NC(=O)[C@@H](CCC(=O)O)NC(=O)[C@@H](CCC(=O)O)NC(=O)[C@@H](CCC(=O)O)NC(=O)[C@@H](CCC(=O)O)NC(=O)[C@@H](CCC(=O)O)NC(=O)CN1CCN(CC(=O)O)CCN(CC(=O)O)CCN(CC(=O)O)CC1)C(=O)N[C@@H](CC(=O)O)C(=O)N[C@@H](Cc1ccccc1)C(N)=O [^111In-CP04, metal not drawn] . Its tissue uptake at 24 h was 0.1

* * *

assay: in vivo; set-up: species or system SCID mice; conditions: SCID, mouse, iv, 10 pmol peptide, total radioactivity, %ID/g tissue, Tumour(+) (A431-CCK2R(+))
Result Type: tissue uptake at 24 h (%ID/g)
One number for each entry, in %ID/g.

Entry under test: CSCC[C@H](NC(=O)[C@H](Cc1c[nH]c2ccccc12)NC(=O)CNC(=O)[C@H](Cc1ccc(O)cc1)NC(=O)[C@H](C)NC(=O)[C@@H](CCC(=O)O)NC(=O)[C@@H](CCC(=O)O)NC(=O)[C@@H](CCC(=O)O)NC(=O)[C@@H](CCC(=O)O)NC(=O)[C@@H](CCC(=O)O)NC(=O)[C@@H](CCC(=O)O)NC(=O)CN1CCN(CC(=O)O)CCN(CC(=O)O)CCN(CC(=O)O)CC1)C(=O)N[C@@H](CC(=O)O)C(=O)N[C@@H](Cc1ccccc1)C(N)=O [^111In-CP04, metal not drawn] . Its tissue uptake at 24 h was 4.98

* * *

assay: in vivo; set-up: species or system SCID mice; details: SCID, mouse, iv, 10 pmol peptide, total radioactivity, %ID/g tissue, Tumour(+) (A431-CCK2R(+))
Result Type: tissue uptake at 1 h (%ID/g)
Give bare numbers, in %ID/g.

Entry under test: CSCC[C@H](NC(=O)[C@H](Cc1c[nH]c2ccccc12)NC(=O)CNC(=O)[C@H](Cc1ccc(O)cc1)NC(=O)[C@H](C)NC(=O)[C@@H](CCC(=O)O)NC(=O)[C@@H](CCC(=O)O)NC(=O)[C@@H](CCC(=O)O)NC(=O)[C@@H](CCC(=O)O)NC(=O)[C@@H](CCC(=O)O)NC(=O)[C@@H](CCC(=O)O)NC(=O)CN1CCN(CC(=O)O)CCN(CC(=O)O)CCN(CC(=O)O)CC1)C(=O)N[C@@H](CC(=O)O)C(=O)N[C@@H](Cc1ccccc1)C(N)=O [^111In-CP04, metal not drawn] . Its tissue uptake at 1 h was 12.6

* * *

assay: in vivo; design: species or system SCID mice; details: SCID, mouse, iv, 10 pmol peptide, total radioactivity, %ID/g tissue, Blood
Result Type: tissue uptake at 4 h (%ID/g)
Give bare numbers, in %ID/g.

Entry under test: CSCC[C@H](NC(=O)[C@H](Cc1c[nH]c2ccccc12)NC(=O)CNC(=O)[C@H](Cc1ccc(O)cc1)NC(=O)[C@H](C)NC(=O)[C@@H](CCC(=O)O)NC(=O)[C@@H](CCC(=O)O)NC(=O)[C@@H](CCC(=O)O)NC(=O)[C@@H](CCC(=O)O)NC(=O)[C@@H](CCC(=O)O)NC(=O)[C@@H](CCC(=O)O)NC(=O)CN1CCN(CC(=O)O)CCN(CC(=O)O)CCN(CC(=O)O)CC1)C(=O)N[C@@H](CC(=O)O)C(=O)N[C@@H](Cc1ccccc1)C(N)=O [^111In-CP04, metal not drawn] . Its tissue uptake at 4 h was 0.02
